assay_system: P. falciparum apicoplast DNA polymerase (Pf-apPOL) (Plasmodium falciparum, UniProt Q8ILY1)
Sequence (Q8ILY1 entry or part of it): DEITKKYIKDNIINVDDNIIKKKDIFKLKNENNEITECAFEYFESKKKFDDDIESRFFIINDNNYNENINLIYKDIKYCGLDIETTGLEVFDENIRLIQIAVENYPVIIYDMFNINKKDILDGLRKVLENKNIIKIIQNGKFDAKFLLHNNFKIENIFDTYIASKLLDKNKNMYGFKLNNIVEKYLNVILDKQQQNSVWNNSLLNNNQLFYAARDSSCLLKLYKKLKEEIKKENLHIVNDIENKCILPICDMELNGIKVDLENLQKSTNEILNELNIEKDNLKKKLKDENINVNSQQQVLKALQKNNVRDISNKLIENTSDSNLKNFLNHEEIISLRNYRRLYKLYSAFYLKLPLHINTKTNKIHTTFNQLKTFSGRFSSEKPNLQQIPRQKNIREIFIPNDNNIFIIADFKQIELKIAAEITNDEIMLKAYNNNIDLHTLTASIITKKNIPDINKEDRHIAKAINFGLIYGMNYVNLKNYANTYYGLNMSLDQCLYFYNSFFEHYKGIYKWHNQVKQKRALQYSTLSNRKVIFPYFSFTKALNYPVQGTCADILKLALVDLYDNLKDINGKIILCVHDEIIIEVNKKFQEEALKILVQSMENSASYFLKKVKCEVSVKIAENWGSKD
assay_name: Fluorescence-based high-throughput DNA polymerase assay (molecular beacon), primary screen and dose-response
Assay type: biochemical
condition_set: conc 5 (unit not given); 40'; DRC-2
Measured % inhibition Apol 40', listed per entry for reference.
The reply should contain only the number, in %.

>  <compound>
O=C(O)CC1SC(c2ccc3c(c2)OCO3)=NC1=O (centres unmarked)

>  <quantity_name>
% inhibition Apol 40'

>  <quantitative_readout>
7

$$$$
>  <compound>
CSC(C)C(=O)C=CN(C)C (centres unmarked)

>  <quantity_name>
% inhibition Apol 40'

>  <quantitative_readout>
11

$$$$
>  <compound>
CN1CC(=Cc2ccco2)C(=O)C(=Cc2ccco2)C1

>  <quantity_name>
% inhibition Apol 40'

>  <quantitative_readout>
27

$$$$
>  <compound>
O=C(Nc1ncc([N+](=O)[O-])s1)c1ccc2c(c1)C(=O)N(N1C(=O)c3ccccc3C1=O)C2=O

>  <quantity_name>
% inhibition Apol 40'

>  <quantitative_readout>
9

$$$$

In the following, a different compound is considered.
Form: compound = CSCCC(C)(O)CNC(=O)C1CC1 (centres unmarked) ; % inhibition Apol 40' = 11

###

assay_system: P. falciparum apicoplast DNA polymerase (Pf-apPOL) (Plasmodium falciparum, UniProt Q8ILY1)
assay_name: Fluorescence-based high-throughput DNA polymerase assay (molecular beacon), primary screen and dose-response;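 as to % inhibition ApPOL 90': test concentration in µM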
Assay type: biochemical
condition_set: DRC-2; 90'; concentration 5
Measured % inhibition ApPOL 90', listed per entry for reference.
I'd appreciate it if you wrote the number followed by its unit.

These recorded examples may help you get a feel for the data.
>  <compound>
NS(=O)(=O)c1ccc(NC(=O)c2ccc(N3C(=O)CCC3=O)cc2)cc1 [KU0025331]

>  <quantity_name>
% inhibition ApPOL 90'

>  <result>
9%

$$$$
>  <compound>
Cc1cc(C)c2c(O)nc(SCC(=O)c3ccc(O)c(O)c3)nc2n1 [Molecule 88]

>  <quantity_name>
% inhibition ApPOL 90'

>  <result>
42%

$$$$
>  <compound>
Cc1nc(/N=N/c2ccc(C(=O)[O-])cc2)c(COP(=O)([O-])[O-])c(C=O)c1O.[Na+].[Na+].[Na+] [KU0261395]

>  <quantity_name>
% inhibition ApPOL 90'

>  <result>
36%

$$$$
>  <compound>
N#Cc1c(C2CCCCC2)nc(Sc2ccc(C(F)(F)F)cc2[N+](=O)[O-])[nH]c1=O [Molecule 20]

>  <quantity_name>
% inhibition ApPOL 90'

>  <result>
13%

$$$$
>  <compound>
CC(NC(=O)Cc1cc(=O)[nH]c(SCc2cccc(Cl)c2)n1)c1ccccc1 (stereo not drawn) [Molecule 67]

>  <quantity_name>
% inhibition ApPOL 90'

>  <result>
-1%

$$$$

Form: compound = O=C1NCCCn2cc(S(=O)(=O)Nc3ccccc3)cc21 [KU0214835] ; % inhibition ApPOL 90' = 7%

Form: compound = CSC1=C(C#N)C(=C(C#N)C#N)NC(c2ccccc2)=N1 [Molecule 2, CSc1nc([nH]c(=C(C#N)C#N)c1C#N)c1ccccc1] ; % inhibition ApPOL 90' = 22%

Form: compound = O=C(Nc1cccc(C(=O)Nc2ccc(S(=O)(=O)[O-])c3cc(S(=O)(=O)[O-])cc(S(=O)(=O)[O-])c23)c1)Nc1cccc(C(=O)Nc2ccc(S(=O)(=O)[O-])c3cc(S(=O)(=O)[O-])cc(S(=O)(=O)[O-])c23)c1.[Na+].[Na+].[Na+].[Na+].[Na+].[Na+] [Molecule 39] ; % inhibition ApPOL 90' = 1%

Form: compound = CCCCCCCCCCCC1SCC(C(=O)O)N1C(C)=O (stereo not drawn) [Molecule 72] ; % inhibition ApPOL 90' = 13%

Form: compound = CCOc1cccc2cc(C(=O)Nc3nnc(-c4ccno4)o3)oc12 [Molecule 28, CCOc1cccc2c1oc(c2)C(=O)Nc1nnc(o1)c1ccno1] ; % inhibition ApPOL 90' = 20%

Form: compound = CCCCOC(=O)CCCCCN1C(=O)C(=Cc2ccc(OC)cc2)SC1=S [Molecule 75] ; % inhibition ApPOL 90' = 6.48%

###

assay_system: P. falciparum apicoplast DNA polymerase (Pf-apPOL) (Plasmodium falciparum)
assay_name: Fluorescence-based high-throughput DNA polymerase assay (molecular beacon), primary screen and dose-response
Assay type: biochemical
condition_set: DRC-2; 5'; concentration 40
Measured % inhibition Apo pol 5', listed per entry for reference.
The reply should contain only the number, in %.

These recorded examples may help you get a feel for the data.
>  <compound>
Cc1cc(C)nc(Nc2nc(CC(=O)Nc3nc(-c4ccco4)cs3)cs2)n1

>  <% inhibition Apo pol 5' [%]>
41

$$$$
>  <compound>
O=C(Cc1cccs1)N1CCN(c2nc(CN3CCOCC3)cs2)CC1

>  <% inhibition Apo pol 5' [%]>
46

$$$$
>  <compound>
O=C(Nc1cccc(C(=O)Nc2ccc(S(=O)(=O)[O-])c3cc(S(=O)(=O)[O-])cc(S(=O)(=O)[O-])c23)c1)Nc1cccc(C(=O)Nc2ccc(S(=O)(=O)[O-])c3cc(S(=O)(=O)[O-])cc(S(=O)(=O)[O-])c23)c1.[Na+].[Na+].[Na+].[Na+].[Na+].[Na+]

>  <% inhibition Apo pol 5' [%]>
59

$$$$
>  <compound>
Cc1cc(C)c2c(O)nc(SCC(=O)c3ccc(O)c(O)c3)nc2n1

>  <% inhibition Apo pol 5' [%]>
58

$$$$
>  <compound>
O=c1[nH]c2ccc([N+](=O)[O-])cc2c(-c2ccccc2)c1Sc1nc2ccccc2o1

>  <% inhibition Apo pol 5' [%]>
59

$$$$
>  <compound>
COc1ccc(-c2cc3nc4c(c(=O)n3[nH]2)CCN(C(=O)CCc2ccccc2)C4)cc1

>  <% inhibition Apo pol 5' [%]>
44

$$$$

Form: compound = "CCOc1cccc2cc(C(=O)Nc3nnc(-c4ccno4)o3)oc12" ; % inhibition Apo pol 5' = 45

Form: compound = "O=C1C(=Cc2ccncc2)Oc2c1ccc1c2CN(Cc2ccc3c(c2)OCO3)CO1" ; % inhibition Apo pol 5' = 46

Form: compound = "COc1cccc(C(=O)N2CCc3c(nc4cc(-c5ccccc5)[nH]n4c3=O)C2)c1OC" ; % inhibition Apo pol 5' = 55

Form: compound = O=C(Cn1ccc2c(=O)[nH]ccc21)Nc1ccc(Cl)cc1 [Molecule 36, O=C(Cn1ccc2c1cc[nH]c2=O)Nc1ccc(cc1)Cl] ; % inhibition Apo pol 5' = 41

Form: compound = "CCCc1ccc(Oc2coc3cc(OC)ccc3c2=O)cc1" ; % inhibition Apo pol 5' = 20

Form: compound = "N#CC(=NNc1cc(C(F)(F)F)cc(C(F)(F)F)c1)C(=O)c1ccco1" ; % inhibition Apo pol 5' = 57

Form: compound = "Cc1ccc(C(=O)/C=C/C=C/C=C/N(C)C)o1" ; % inhibition Apo pol 5' = -21

Form: compound = "O=C1C(=Cc2ccccc2O)Oc2ccc(O)cc21" ; % inhibition Apo pol 5' = 40

Form: compound = "CC(C)(C)OC(=O)COc1ccc2cc(-c3ccccc3)c(=O)oc2c1" ; % inhibition Apo pol 5' = 36

Form: compound = "CC1(C)CC(=O)C2=C(C1)OC1=C(C(=O)CC(C)(C)C1)C2c1ccc(O)cc1" ; % inhibition Apo pol 5' = 37

Form: compound = "COc1cc(NC(=O)c2ccccc2)c(OC)cc1NC(=O)Cc1cccs1" ; % inhibition Apo pol 5' = 34

Form: compound = "O=C(Nc1c2c(nn1-c1ccc(Oc3ccccc3)cc1)CSC2)c1ccco1" ; % inhibition Apo pol 5' = 54

Form: compound = "O=C(O)CCS(=O)(=O)c1ccc(-c2ccc(S(=O)(=O)CCC(=O)O)cc2)cc1" ; % inhibition Apo pol 5' = 49

###

assay_system: P. falciparum apicoplast DNA polymerase (Pf-apPOL) (Plasmodium falciparum, UniProt Q8ILY1)
assay_name: Fluorescence-based high-throughput DNA polymerase assay (molecular beacon), primary screen and dose-response
Type: biochemical
condition_set: 'DNA Pol' of the 186 hits list (screen value); 90 min, 10 µM
quantity_name: DNA Pol
// no unit, no text: just the number

These recorded examples may help you get a feel for the data.
>  <molecule>
O=C1Nc2ccc(I)cc2C1=Cc1cc(Br)c(O)c(Br)c1

>  <DNA Pol>
52

$$$$
>  <molecule>
Cc1ccc(NC(=O)Cn2ccc3c(=O)[nH]ccc32)c(C)c1

>  <DNA Pol>
21

$$$$
>  <molecule>
O=C1NN(c2ccc(Cl)c(Cl)c2)C(=O)/C1=C/c1ccc(-c2ccc3c(c2)C(=O)OC3)o1

>  <DNA Pol>
51

$$$$
>  <molecule>
Cc1cc(C)c2c(c1)C1C=CCC1C(c1ccc(C(=O)O)cc1)N2 (centres unmarked)

>  <DNA Pol>
60

$$$$
>  <molecule>
Cc1cccc(NC(=O)Cn2ccc3c(=O)[nH]ccc32)c1C [Molecule 11, O=C(Cn1ccc2c1cc[nH]c2=O)Nc1cccc(c1C)C]

>  <DNA Pol>
54

$$$$
>  <molecule>
Cc1ccc(N2NC(=O)/C(=C\c3ccc(O)c([N+](=O)[O-])c3)C2=O)cc1Cl

>  <DNA Pol>
41

$$$$
>  <molecule>
O=c1nc(/C=C/c2ccc(Br)cc2)oc2ccccc12

>  <DNA Pol>
39

$$$$

In the following, a different molecule is considered.
Form: molecule = "Cc1cccc(C2=N/C(=C\c3ccc([N+](=O)[O-])o3)C(=O)O2)c1" ; DNA Pol = 79

Values were extracted from paper PMC9090415.
